# EXPERIMENT NOTES: AP1 Signaling Pathway (AID 357);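 further: ME-180 reporter cells stimulated with EGF at its EC50 level; on the % scale 0 is the no-effect control and ±100 the full control effect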
# CONDITION SUMMARY: ME-180 (cervical carcinoma) AP-1-bla reporter, EGF-induced, beta-lactamase ratio, 5 h; at 7.69 µM (top of the series) unless noted
Results filed as inconclusive are left out.
RECORDED ENDPOINT: activity change, negative = inhibition (%)
Your answer is read as %, so omit the unit and give the number.

Solved cases below.
STRUCTURE AS SMILES: CN(C)c1ncnc2ccc(-c3ccccc3C#N)cc12
activity change, negative = inhibition, %: -24
//
STRUCTURE AS SMILES: CN1CCN(c2ncc3nc(CCc4ccccc4)c(=O)n(Cc4ccc(F)cc4)c3n2)CC1
activity change, negative = inhibition, %: 4.85
//
STRUCTURE AS SMILES: c1cncc(-c2nc(N3CCNCC3)c3ccccc3n2)c1
activity change, negative = inhibition, %: 8.36
//
STRUCTURE AS SMILES: c1ccc(CNc2cc(-c3cccnc3)ncn2)cc1
activity change, negative = inhibition, %: 1.27
//
STRUCTURE AS SMILES: Fc1ccc(Nc2ccnc(-c3ccoc3)n2)cc1
activity change, negative = inhibition, %: -6.54

Turning now to a further record.
Problem: Using the record for "CN(C)c1ccc(-c2nc(N(C)Cc3ccco3)c3ccccc3n2)cc1" , state its measured activity change, negative = inhibition.
Solution: 25.1

====

# EXPERIMENT NOTES: qHTS drug screen for cell cycle checkpoint inhibitors in PARPi-resistant BRCA-mutant ovarian cancer cell lines. (AID 1963452)
# CONDITION SUMMARY: PEO1/OlaR viability, CellTiter-Glo luminescence, 96 h; measured here: PEO4 Z-AUC; stronger effect = lower value
RECORDED ENDPOINT: Z-AUC
Please reply with the number alone, leaving off any unit.

Solved cases below.
COMPOUND: c1ccc(CNCc2ccc(CN3CCCNCCNCCCNCC3)cc2)nc1
RECORDED ENDPOINT: Z-AUC
ASSAY VALUE: 1.11
--
COMPOUND: NC(CC1c2ccccc2Oc2ccccc21)(C(=O)O)C1CC1C(=O)O (configuration not stated)
RECORDED ENDPOINT: Z-AUC
ASSAY VALUE: 0.591
--
COMPOUND: CO[C@H]1/C=C/O[C@@]2(C)Oc3c(C)c(O)c4c(O)c(c(/C=N\N5CCN(C6CCCC6)CC5)c(O)c4c3C2=O)NC(=O)/C(C)=C\C=C\[C@H](C)[C@H](O)[C@@H](C)[C@@H](O)[C@@H](C)[C@H](OC(C)=O)[C@@H]1C
RECORDED ENDPOINT: Z-AUC
ASSAY VALUE: -0.603
--
COMPOUND: C[C@@H]1C[C@H](N)C[C@H](c2ccncc2NC(=O)c2ccc(F)c(-c3c(F)cccc3F)n2)C1
RECORDED ENDPOINT: Z-AUC
ASSAY VALUE: -0.817
--
COMPOUND: C[C@]12CCC3=C4CCC(=O)C=C4CC[C@H]3[C@@H]1CC[C@@]2(O)CC#N
RECORDED ENDPOINT: Z-AUC
ASSAY VALUE: 1.39
--
COMPOUND: Cc1ncsc1-c1ccc([C@H](C)NC(=O)[C@@H]2C[C@@H](O)CN2C(=O)[C@@H](NC(=O)COCCCOCCNC(=O)C[C@@H]2N=C(c3ccc(Cl)cc3)c3c(sc(C)c3C)-n3c(C)nnc32)C(C)(C)C)cc1
RECORDED ENDPOINT: Z-AUC
ASSAY VALUE: -2.23

Turning now to a further record.
Problem: Using the record for "Nc1nc(N)c2nc(-c3cccc(Cl)c3)c(N)nc2n1" , state its measured Z-AUC.
Solution: -0.371
